Molecular target: NAMPT (Homo sapiens)
Construct: His tag; host or cells: E. coli
Sequence (P43490 whole entry): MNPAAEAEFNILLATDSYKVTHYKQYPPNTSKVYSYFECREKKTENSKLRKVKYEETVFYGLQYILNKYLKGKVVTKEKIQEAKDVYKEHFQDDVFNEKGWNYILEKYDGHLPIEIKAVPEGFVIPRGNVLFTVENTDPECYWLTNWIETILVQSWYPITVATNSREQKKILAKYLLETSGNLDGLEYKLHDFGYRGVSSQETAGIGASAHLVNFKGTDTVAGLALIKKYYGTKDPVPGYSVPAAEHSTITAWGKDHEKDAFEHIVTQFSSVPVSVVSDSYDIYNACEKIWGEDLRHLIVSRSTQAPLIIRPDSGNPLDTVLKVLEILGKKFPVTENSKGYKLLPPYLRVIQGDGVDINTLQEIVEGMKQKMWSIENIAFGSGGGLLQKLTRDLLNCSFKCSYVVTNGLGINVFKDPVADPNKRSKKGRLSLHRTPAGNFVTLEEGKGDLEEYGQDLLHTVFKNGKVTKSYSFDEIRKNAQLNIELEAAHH
Assay: Biochemical inhibition assay: NAMPT enzymatic reaction, NMN quantified by mass spectrometry
Details: NAMPT enzymatic reaction; read-out: Biochem IC50
Source text: Biochemical Inhibition Assay NAMPT Protein Purification Recombinant His-tagged NAMPT was produced in E. coli cells, purified over a Ni column, and further purified over a size-exclusion column by XTAL Biostructures. The NAMPT Enzymatic Reaction […] A mass spectrometry-based assay was used to measure the NAMPT reaction product (NMN) and the internal control (L-Cystathionine). NMN and L-Cystathionine were detected using the services of Biocius Lifesciences with the RapidFire system. […]
pIC50: −log10 of the molar value.
// NO strictly below 8 in pIC50; YES otherwise

Here's what some known entries look like.
# input Assess whether reported pIC50 for O=C(Nc1ccc(CNC(=O)c2cc3cnccc3[nH]2)cc1)c1ccccc1 sits at 8 or higher.
# output NO

# input Assess whether reported pIC50 for COc1ccc(S(=O)(=O)c2ccc(CNC(=O)c3cnc4[nH]ncc4c3)cc2)cc1 sits at 8 or higher.
# output NO

# input Assess whether reported pIC50 for CCOc1cccc(S(=O)(=O)c2ccc(CNC(=O)c3ccc4nccn4c3)cc2)c1 sits at 8 or higher.
# output YES

# input Assess whether reported pIC50 for O=C(NCc1ccc(S(=O)(=O)c2cccc(-c3ccccc3)c2)cc1)c1cc2cnccc2[nH]1 sits at 8 or higher.
# output YES

# input Assess whether reported pIC50 for O=C(NCc1ccc(S(=O)(=O)N2CCCCC2)cc1)c1cn2[nH]ccc2n1 sits at 8 or higher.
# output YES

# input Assess whether reported pIC50 for O=C(NCc1ccc(S(=O)(=O)Nc2ccc3c(c2)OCCO3)cc1)c1cc2cnccc2[nH]1 sits at 8 or higher.
# output NO

# input Assess whether reported pIC50 for CCCOc1ccc(S(=O)(=O)c2ccc(CNC(=O)c3cc4ccncc4s3)cc2)cc1 sits at 8 or higher.
# output YES

# input Assess whether reported pIC50 for Cc1cccc(C)c1S(=O)(=O)c1ccc(CNC(=O)c2cc3ccncc3o2)cc1 sits at 8 or higher.
# output NO

More entries:
# input Assess whether reported pIC50 for COc1c(Cl)ccc(S(=O)(=O)c2ccc(CNC(=O)c3cc4ccncc4s3)cc2)c1Cl sits at 8 or higher.
# output YES

# input Assess whether reported pIC50 for O=C(NCc1ccc(S(=O)(=O)c2ccccc2Cl)cc1)c1cnc2[nH]ncc2c1 sits at 8 or higher.
# output NO

# input Assess whether reported pIC50 for O=C(NCc1ccc(S(=O)(=O)c2cccc(-c3ccccc3)c2)cc1)c1ccc2ncsc2c1 sits at 8 or higher.
# output NO

* * *

Target: NAMPT (Homo sapiens)
Construct: His tag; host or cells: E. coli
Assay: Biochemical inhibition assay: NAMPT enzymatic reaction, NMN quantified by mass spectrometry
Conditions: NAMPT enzymatic reaction; read-out: Biochem IC50
# label = Met if IC50 < 20 nM else Not met

# input Record COc1cc(F)ccc1S(=O)(=O)c1ccc(CNC(=O)c2ccc3nccn3c2)cc1 : is its IC50 strictly below 20 nM?
# output Met

More entries:
# input Record O=C(NCc1ccc(S(=O)(=O)c2ccccc2)cc1)N1CCc2ncncc2C1 : is its IC50 strictly below 20 nM?
# output Not met

# input Record COc1ccc(OC)c(S(=O)(=O)c2ccc(CNC(=O)c3cc4ccncc4o3)cc2)c1OC : is its IC50 strictly below 20 nM?
# output Not met

# input Record CCOc1cccc(S(=O)(=O)c2ccc(CNC(=O)c3ccc4nccn4c3)cc2)c1F : is its IC50 strictly below 20 nM?
# output Met

# input Record COc1cc(S(=O)(=O)c2ccc(CNC(=O)c3cc4cnccc4[nH]3)cc2)ccc1F : is its IC50 strictly below 20 nM?
# output Not met

# input Record O=C(NCc1ccc(S(=O)(=O)c2ccccc2CN2CCOCC2)cc1)c1cc2ccncc2s1 : is its IC50 strictly below 20 nM?
# output Met

# input Record COc1ccc(S(=O)(=O)c2ccc(CNC(=O)c3cc4ccncc4s3)cc2)cc1C : is its IC50 strictly below 20 nM?
# output Met

# input Record Cc1ccc(S(=O)(=O)c2ccc(CNC(=O)c3cnc4[nH]ncc4c3)cc2)c(Cl)c1 : is its IC50 strictly below 20 nM?
# output Met

# input Record CCc1ccccc1S(=O)(=O)c1ccc(CNC(=O)c2cc3ccncc3s2)cc1 : is its IC50 strictly below 20 nM?
# output Met
